test.target: Rap guanine nucleotide exchange factor 4 (Homo sapiens)
measurement.notes: Confirmatory qHTS for antagonist of cAMP-regulated guanine nucleotide exchange factor 4 (EPAC2) (AID 1645885); also: nearly all actives have a fitted effect of over 25% in size
cond: EPAC2 Rap1B-BODIPY-GDP exchange fluorescence, biochemical; series mostly up to 12.7 µM
Results filed as inconclusive are left out. The source made the active and inactive calls. Calls follow the shape of the dose curve; as a rule, active = well fitted inhibition curve with a large enough effect; inconclusive = small, poorly fitted or top-dose-only effect; inactive = no such curve, though single readings can be large or run the other way.
Please answer using one outcome listed in active, inactive

Could you kindly confirm the outcome this assay logged for "O=C(COc1ccccc1Br)NCCC1=CCCCC1" ? inactive

Could you kindly confirm the outcome this assay logged for "Cc1cccc(-n2c(O)c(C=Nc3ccccc3O)c3ccccc3c2=O)n1" ? inactive

Could you kindly confirm the outcome this assay logged for "Oc1ccc(/C=N/Nc2ncnc3c2ncn3Cc2ccccc2)cc1O" ? inactive

Could you kindly confirm the outcome this assay logged for "O=C(O)COc1ccc(NC(=O)C(c2ccccc2)c2ccccc2)cc1" ? active

Could you kindly confirm the outcome this assay logged for "N#Cc1c(-c2ccccc2)nc(SCC(=O)Nc2ccc(OC(F)(F)Cl)cc2)[nH]c1=O" ? active

Could you kindly confirm the outcome this assay logged for "Cc1nn(CCc2nn[nH]n2)c2nc(-c3ccc(C4CCCCC4)cc3)cc(C(F)(F)F)c12" ? inactive

Could you kindly confirm the outcome this assay logged for "Cc1cccc(OCCCSc2nc(-c3ccc(C(C)(C)C)cc3)nc3cc(=O)[nH]n23)c1C" ? inactive

Could you kindly confirm the outcome this assay logged for Cc1ccc(S(=O)(=O)N2CCCCC2c2cccnc2)c(C)c1C (stereo not given) ? inactive

Could you kindly confirm the outcome this assay logged for "COC(=O)c1c(SC)nc2ccccc2c1OCc1ccccc1C" ? inactive

Could you kindly confirm the outcome this assay logged for "Cc1cc(C)c2nc(C)cc(Nc3ccc(C(=O)NCCO)cc3)c2c1" ? inactive

* * *

Kindly state max response for each of the entries shown.
measurement.notes: qHTS Assay for Lipid Storage Modulators (AID 1519)
cond: Drosophila S3 cells, BODIPY lipid droplet/cell ratio, laser cytometry; measured here: lipid channel max response; cells loaded with oleic acid
Records with an inconclusive call do not appear. Peptide text beside a SMILES is read from it.
Give the value in % but do not write % after it.

So what's the measured max response for this one? "COc1ccc2c3c([nH]c2c1)[C@@H]1C[C@@H]2[C@@H](C[C@H](O)[C@H](OC)[C@H]2C(=O)O)CN1CC3" -20

So what's the measured max response for this one? CC1=C(/C=C/C(C)=C/C=C/C(C)=C/C=C/C=C(C)/C=C/C=C(C)/C=C/C2=C(C)C(=O)C(O)CC2(C)C)C(C)(C)CC(O)C1=O (stereo not drawn) 27.4

So what's the measured max response for this one? CC(=O)OCC1OC(n2cnc3c(=O)[nH]cnc32)C(OC(C)=O)C1OC(C)=O (stereo not drawn) 13.2

So what's the measured max response for this one? Nc1nc2ncc(CNc3ccc(C(=O)NC(CCC(=O)O)C(=O)O)cc3)nc2c(=O)[nH]1 (stereo not drawn) 24.2

So what's the measured max response for this one? CC(=O)NC(CC(=O)O)C(=O)NC(CCC(=O)O)C(=O)O (stereo not drawn) (Ac-Asp-Glu-OH; configuration not given here) 18.5

So what's the measured max response for this one? COC(=O)C(O)C1C(C)(C)C(OC(C)=O)C2CC3=C4CC(=O)OC(c5ccoc5)[C@]4(C)CCC3[C@@]1(C)C2=O (stereo partly drawn) 8.34

So what's the measured max response for this one? "CCc1c(C)[nH]c2c1C(=O)[C@H](CN1CCOCC1)CC2" -8.65

So what's the measured max response for this one? "O=C1OCCN1/N=C\c1ccc([N+](=O)[O-])o1" -14.3

* * *

test.target: Rap guanine nucleotide exchange factor 3 (Homo sapiens) (UniProt O95398)
Sequence (O95398 whole entry, looked up): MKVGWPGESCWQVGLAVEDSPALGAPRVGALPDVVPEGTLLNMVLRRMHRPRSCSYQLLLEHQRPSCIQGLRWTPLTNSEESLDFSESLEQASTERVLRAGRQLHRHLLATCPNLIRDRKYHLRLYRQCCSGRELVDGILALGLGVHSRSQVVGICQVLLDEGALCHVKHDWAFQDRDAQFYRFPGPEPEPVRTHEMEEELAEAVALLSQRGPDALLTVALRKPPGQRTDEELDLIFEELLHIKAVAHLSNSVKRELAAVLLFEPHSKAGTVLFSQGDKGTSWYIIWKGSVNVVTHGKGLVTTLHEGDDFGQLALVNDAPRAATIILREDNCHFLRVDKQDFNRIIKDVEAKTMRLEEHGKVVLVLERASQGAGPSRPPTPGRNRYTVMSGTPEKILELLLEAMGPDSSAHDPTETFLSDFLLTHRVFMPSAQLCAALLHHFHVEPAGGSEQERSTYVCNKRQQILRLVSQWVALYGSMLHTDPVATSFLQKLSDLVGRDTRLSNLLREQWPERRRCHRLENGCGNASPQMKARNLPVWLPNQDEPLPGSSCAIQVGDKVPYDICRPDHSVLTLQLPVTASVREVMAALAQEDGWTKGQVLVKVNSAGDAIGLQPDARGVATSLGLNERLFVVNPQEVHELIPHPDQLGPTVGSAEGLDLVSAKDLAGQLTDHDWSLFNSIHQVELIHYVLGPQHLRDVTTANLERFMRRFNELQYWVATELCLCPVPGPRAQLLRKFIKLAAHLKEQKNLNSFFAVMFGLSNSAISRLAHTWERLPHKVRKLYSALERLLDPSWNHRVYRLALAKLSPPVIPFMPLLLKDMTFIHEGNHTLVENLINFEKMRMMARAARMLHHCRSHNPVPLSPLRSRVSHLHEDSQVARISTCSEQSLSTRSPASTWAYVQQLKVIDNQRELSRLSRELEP
measurement.notes: Confirmatory qHTS for antagonist of cAMP-regulated guanine nucleotide exchange factor 3 (EPAC1) (AID 1645880); also: nearly all actives have a fitted effect of over 55% in size
cond: EPAC1 Rap1B-BODIPY-GDP exchange, fluorescence; series mostly up to 115 µM
Records with an inconclusive call do not appear. Calls of active or inactive are those of the source. Calls follow the shape of the dose curve; as a rule, active = well fitted inhibition curve with a large enough effect; inconclusive = small, poorly fitted or top-dose-only effect; inactive = no such curve, though single readings can be large or run the other way.
Please answer using one outcome listed in YES for active, NO for inactive

Could you kindly confirm the outcome this assay logged for COC(=O)c1ccc(N2C(=O)CC(N3CCOCC3)C2=O)cc1 (stereo unspecified) ? NO

Could you kindly confirm the outcome this assay logged for "Clc1ccc2nc(C3CCCCC3)c(CC3CCCCC3)n2c1" ? NO

Could you kindly confirm the outcome this assay logged for "Cn1c(O)c(N=NC(=O)c2ccccc2O)c2ccccc21" ? YES

Could you kindly confirm the outcome this assay logged for "COC(=O)CNc1cc(S(=O)(=O)N2CCCCC2)ccc1Oc1cccc(C)c1" ? NO

Could you kindly confirm the outcome this assay logged for "Cc1ccc(-n2nc3c(=O)n(CCCC(=O)NCc4ccccc4F)nc(C)c3c2C)cc1" ? NO

Could you kindly confirm the outcome this assay logged for "CCCc1cc(C(=O)Nc2ccccc2SC)no1" ? NO

Could you kindly confirm the outcome this assay logged for "COc1ccc(C/C(C)=N/NC(=O)c2cccnc2)cc1" ? NO

Could you kindly confirm the outcome this assay logged for "Oc1ccc(NCc2cccs2)cc1" ? NO

Could you kindly confirm the outcome this assay logged for "Cc1cc(SCC(=O)c2ccc(O)c(O)c2)nc2ccccc12" ? YES

Could you kindly confirm the outcome this assay logged for COc1cc2c(cc1OC)C(c1ccccc1)N(C(=O)c1ccco1)CC2 (stereo unspecified) ? NO

Could you kindly confirm the outcome this assay logged for "CC(C)(C)[C@H]1CCC(=O)N([C@H](CN=[N+]=[N-])Cc2ccccc2)CC1" ? NO

Could you kindly confirm the outcome this assay logged for "COc1cc2cnc(-c3ccccc3)c(C(=O)c3ccc(F)cc3)c2cc1OC" ? NO

Could you kindly confirm the outcome this assay logged for "COc1ccc(S(=O)(=O)N2CCOC23CCN(S(=O)(=O)c2ccc(F)cc2C)CC3)cc1" ? NO

Could you kindly confirm the outcome this assay logged for "CN1C(=O)Cc2cc(S(=O)(=O)N3CCN(c4ccccc4F)CC3)ccc21" ? NO

Could you kindly confirm the outcome this assay logged for "Cc1ccc(C(=O)NCCCNC(=O)c2ccco2)cn1" ? NO

Could you kindly confirm the outcome this assay logged for "COc1ccc(Br)cc1CNC(=O)c1ccc2nc(C(C)C)oc2c1" ? NO

Could you kindly confirm the outcome this assay logged for "Cn1c2ccccc2c2cc(/C=N/NC(=O)c3cc(O)ccc3O)ccc21" ? YES

Could you kindly confirm the outcome this assay logged for "O=C1S/C(=C\c2ccc(O)c([N+](=O)[O-])c2)C(=O)N1c1ccccc1Cl" ? YES

Could you kindly confirm the outcome this assay logged for "O=C(c1ccc2nc(N3CCOCC3)sc2c1)N1CCC(Cc2ccccc2)CC1" ? NO

Could you kindly confirm the outcome this assay logged for "O=C(CCNC(=O)c1ccc(Br)cc1)Nc1ccccc1N1CCOCC1" ? NO

Could you kindly confirm the outcome this assay logged for "CN1OC[C@@H]2CN(S(=O)(=O)c3cc(Cl)cc(Cl)c3)[C@H](c3ccc(-c4ccc(C#N)cc4)cc3)C[C@@H]21" ? NO

Could you kindly confirm the outcome this assay logged for "Cc1cccc(NC(=O)c2sc3nc(-c4cc5ccc(O)cc5oc4=O)[nH]c(=O)c3c2C)c1" ? NO

Could you kindly confirm the outcome this assay logged for "CCOc1ccc(CCNc2ncnc3onc(-c4ccc(Cl)cc4)c23)cc1OCC" ? NO

Could you kindly confirm the outcome this assay logged for "C#Cc1ccc([C@@H]2C=C(C(=O)NCc3nc4ccccc4[nH]3)O[C@H](OCC)[C@H]2CCCO)cc1" ? NO

Could you kindly confirm the outcome this assay logged for "O=c1[nH]c([N+](=O)[O-])nn1C(c1ccccc1)c1ccccc1" ? NO

Could you kindly confirm the outcome this assay logged for Cc1ccc(Cl)cc1NC(=O)C(C)n1nc(-c2ccccc2)ccc1=O (stereo unspecified) ? NO

Could you kindly confirm the outcome this assay logged for "CC(=O)Nc1ccc(NC(=O)CCC(=O)OCC(=O)c2ccc(C)c([N+](=O)[O-])c2)cc1" ? NO

Could you kindly confirm the outcome this assay logged for "COc1ccc(CCNC(=O)c2c(C)nn(-c3ccc(F)cc3)c2-n2cccc2)cc1OC" ? NO

Could you kindly confirm the outcome this assay logged for "C=CCOc1ccc(C=NNc2ccc(S(=O)(=O)Nc3ccccc3C(=O)O)cc2[N+](=O)[O-])cc1OC" ? YES

Could you kindly confirm the outcome this assay logged for "CCc1cccc(C)c1Nc1c(-c2cccs2)nc2ncccn12" ? NO

Could you kindly confirm the outcome this assay logged for CC(C(=O)Nc1ccccc1-c1ccccc1)N1CCN(C(=O)c2ccccc2)CC1 (stereo unspecified) ? NO

Could you kindly confirm the outcome this assay logged for "CC(C)C[C@H](NC(=O)[C@H](Cc1ccccc1)n1c(=O)[nH]c2ccccc2c1=O)C(=O)N1CCC(C(=O)O)CC1" ? NO

Could you kindly confirm the outcome this assay logged for "O=C(Nc1cc(-c2ccccc2)sc1C(=O)O)c1cccc(F)c1" ? YES

Could you kindly confirm the outcome this assay logged for "Cc1ccc(C2=N/C(=C\c3c(C)nn(-c4ccccc4)c3N3CCCC3)C(=O)O2)cc1" ? NO

Could you kindly confirm the outcome this assay logged for "COC(=O)c1cc2oc(C)cc2n1Cc1ccc(Br)cc1F" ? NO

Could you kindly confirm the outcome this assay logged for CC1(c2ccccc2)CC(C)(C)N2C(=O)Cc3cccc1c32 (stereo unspecified) ? NO

Could you kindly confirm the outcome this assay logged for CC(C)c1ccc(C2NC(=O)c3c(sc4c3CCN(C)C4)N2)cc1 (stereo unspecified) ? NO

Could you kindly confirm the outcome this assay logged for "CN(C)C(=O)CCc1ccc2c3c([nH]c2c1)[C@]1(C)[C@@H](C(=O)N2CCCCC2)C[C@H](CC(=O)NCCc2ccccn2)C(=O)N1CC3" ? NO

Could you kindly confirm the outcome this assay logged for "COc1ccc(N2CCN(S(=O)(=O)c3cc4c(cc3C)NC(=O)CO4)CC2)cc1" ? NO

Could you kindly confirm the outcome this assay logged for "OCC[n+]1ccc(/C=C/c2c[nH]c3ccccc23)cc1" ? NO

Could you kindly confirm the outcome this assay logged for O=C(O)C(c1ccccc1)N1C(=O)/C(=C\c2ccc(O)c(O)c2)SC1=S (stereo unspecified) ? YES
